- EXPERIMENTAL_SYSTEM: CAT-1 (carnitine acyltransferase 1) (Rattus norvegicus)
- Construct: This preparation is used as the isolated mitochondrial preparation; from tissue; host or cells: rat heart (atria removed), isolated mitochondria
- MEASUREMENT_PROTOCOL: Secondary Screen--Inhibition of CAT-1 in intact cardiac myocytes (hypoxia-induced increase in long-chain acylcarnitines)
- Assay type: cell-based
- REPORTED_CONDITIONS: isolated rat cardiac myocytes, 50% inhibition of hypoxia-induced increase in long-chain acylcarnitines
EXPERIMENTAL_ENDPOINT: IC50 (µM)

O=C(O)C(=O)c1ccc(OCCOc2cccc3ccccc23)cc1 [Example 84]
4

P. O=C(O)C(=O)c1ccc(CCCOc2ccc3ccccc3c2)cc1 [Example 143]
Q. CCC(C)(C)C(=O)OCc1cccc(C)c1/C=C/COc1ccc(C(=O)C(=O)O)cc1 [Example 220]
// query Please state the entry with greater IC50 among P and Q . Please indicate the selected item by its label.
// result P
(P: 12 µM, Q: 0.09 µM)

----------
- EXPERIMENTAL_SYSTEM: CAT-1 (carnitine acyltransferase 1) (Rattus norvegicus)
- Construct: This preparation is used as the isolated mitochondrial preparation; from tissue; host or cells: rat heart (atria removed), isolated mitochondria
- MEASUREMENT_PROTOCOL: Primary Screen--Inhibition of CAT-1 in isolated mitochondria
- Type: biochemical
Where a name gives a salt, the structure may show the parent alone.
EXPERIMENTAL_ENDPOINT: pIC50
Field pIC50 (float): negative decimal logarithm of the concentration in molar.

O=C(O)C(=O)c1ccc(OCC(=O)N2CCN(CCc3ccccc3C(F)(F)F)CC2)cc1 [Example 253, hydrochloride]
6.30

// query Using known records, supply pIC50 for Cc1nnc2n1-c1sc(CCCOc3ccc(C(=O)C(=O)O)cc3)cc1C(c1ccccc1Cl)=NC2
// result 5.00

// query Using known records, supply pIC50 for O=C(O)C(=O)c1ccc(OCCOc2cc3ccccc3c3ccccc23)cc1
// result 7.00

// query Using known records, supply pIC50 for Cc1nnc2n1-c1sc(C#CCOc3ccc(C(=O)C(=O)O)cc3)cc1C(c1ccccc1Cl)=NC2
// result 6.52

----------
- EXPERIMENTAL_SYSTEM: CAT-1 (carnitine acyltransferase 1) (Rattus norvegicus)
- Construct: This preparation is used as the isolated mitochondrial preparation; from tissue; host or cells: rat heart (atria removed), isolated mitochondria
- MEASUREMENT_PROTOCOL: Primary Screen--Inhibition of CAT-1 in isolated mitochondria
- Format: biochemical
- REPORTED_CONDITIONS: rat heart mitochondria, reduction of palmitoyl carnitine formation by 50%; read-out: Primary Screen IC50
EXPERIMENTAL_ENDPOINT: IC50 (nM)

Below, 2 compounds whose answers are already recorded.
CCC(C)(C)C(=O)Oc1cccc2ccc(OCCOc3ccc(C(=O)C(=O)OC)cc3)cc12
35000
O=C(O)C(=O)c1ccc(OCCOc2ccc(C(F)(F)F)cc2)cc1
800

P. O=C(O)C(=O)c1ccc(OCCCCCOc2ccccc2)cc1
Q. O=C(O)C(=O)c1ccc(OCCOc2ccc(Cl)cc2)cc1
// query Please choose the item with the lower IC50 value from this pair: P and Q Please indicate the selected item by its label.
// result Q

1. CO/N=C(\C(=O)O)c1ccc(OCCOc2ccc3ccccc3c2)s1
2. CCCc1c(OCCCOc2ccc(C(=O)C(=O)O)cc2)ccc(C(C)=O)c1OC
// query Please state the entry with greater IC50 among 1 and 2 . Please indicate the selected item by its label.
// result 1

----------
- EXPERIMENTAL_SYSTEM: CAT-1 (carnitine acyltransferase 1) (Rattus norvegicus)
- Construct: This preparation is used as the isolated mitochondrial preparation; from tissue; host or cells: rat heart (atria removed), isolated mitochondria
- MEASUREMENT_PROTOCOL: Primary Screen--Inhibition of CAT-1 in isolated mitochondria
- Format: biochemical
- REPORTED_CONDITIONS: rat heart mitochondria, reduction of palmitoyl carnitine formation by 50%; read-out: Primary Screen IC50
EXPERIMENTAL_ENDPOINT: IC50 (nM)

Below, 2 compounds whose answers are already recorded.
O=C(NO)C(=O)c1ccc(OCCOc2ccc3ccccc3c2)s1
2100
O=C(O)C(=O)c1ccc(OCCCCCCc2cccc(O)c2O)cc1
4000

a. COCCOc1ccc(C(=O)C(=O)O)cc1
b. O=C(O)C(=O)c1ccc(OCCOc2ccc3ccncc3c2)cc1 [Example 129, hydrate]
c. O=C(O)C(=O)c1ccc(OCCOc2ccc([N+](=O)[O-])cc2)cc1
d. CN(O)C(=O)C(=O)c1ccc(OCCOc2ccc3ccccc3c2)cc1
e. CC(C)c1cccc(-c2ccc(F)cc2)c1/C=C/COc1ccc(C(=O)C(=O)O)cc1
// query Put the entries in order of IC50, starting with the largest number. Note for the reader: the ranking is given by listing the labels in the order requested.
// result a, e, c, d, b
(a: 30000 nM, e: 9000 nM, c: 3000 nM, d: 1900 nM, b: 440 nM)

----------
- EXPERIMENTAL_SYSTEM: CAT-1 (carnitine acyltransferase 1) (Rattus norvegicus)
- Construct: This preparation is used as the isolated mitochondrial preparation; from tissue; host or cells: rat heart (atria removed), isolated mitochondria
- MEASUREMENT_PROTOCOL: Secondary Screen--Inhibition of CAT-1 in intact cardiac myocytes (hypoxia-induced increase in long-chain acylcarnitines)
- Assay type: cell-based
- REPORTED_CONDITIONS: isolated rat cardiac myocytes, 50% inhibition of hypoxia-induced increase in long-chain acylcarnitines
EXPERIMENTAL_ENDPOINT: IC50 (µM)

Below, 3 compounds whose answers are already recorded.
O=C(OCCOCCOCCO)C(=O)c1ccc(OCCOc2ccc3ccccc3c2)cc1 [Example 105]
75
O=C(O)C(=O)c1ccc(OCCSc2ccccc2)cc1 [Example 82]
17.5
O=C(O)C(F)(F)c1ccc(OCCOc2ccc3ccccc3c2)cc1 [Example 13]
3.8

I. CC(C)(C)c1ccc(C(=O)COc2ccc(C(=O)C(=O)O)cc2)cc1 [Example 286]
II. O=C(OCC(O)CO)C(=O)c1ccc(OCCOc2ccc3ccccc3c2)s1 (racemic) [Example 5]
// query Please choose the item with the lower IC50 value from this pair: I and II Please indicate the selected item by its label.
// result II
(II: 0.25 µM, I: 1.2 µM)

----------
- EXPERIMENTAL_SYSTEM: CAT-1 (carnitine acyltransferase 1) (Rattus norvegicus)
- Construct: This preparation is used as the isolated mitochondrial preparation; from tissue; host or cells: rat heart (atria removed), isolated mitochondria
- MEASUREMENT_PROTOCOL: Secondary Screen--Inhibition of CAT-1 in intact cardiac myocytes (hypoxia-induced increase in long-chain acylcarnitines)
- Type: cell-based
- REPORTED_CONDITIONS: isolated rat cardiac myocytes, 50% inhibition of hypoxia-induced increase in long-chain acylcarnitines
pIC50: −log10 of the molar value.
EXPERIMENTAL_ENDPOINT: pIC50

A. O=C(O)C(=O)c1ccc(OCCOc2ccccc2)cc1 [Example 37]
B. CCC(C)(C)C(=O)OCc1cccc(C)c1OCCOc1ccc(C(=O)C(=O)O)cc1 [Example 136, hydrate]
C. O=C(NO)C(=O)c1ccc(OCCOc2ccc3ccccc3c2)s1 [Example 300]
// query From the items above, give an ordering by pIC50 that starts at the lowest reported number. Note for the reader: the ranking is given by listing the labels in the order requested.
// result A, C, B
(A: 4.43, C: 5.30, B: 6.05)

----------
- EXPERIMENTAL_SYSTEM: CAT-1 (carnitine acyltransferase 1) (Rattus norvegicus)
- Construct: This preparation is used as the isolated mitochondrial preparation; from tissue; host or cells: rat heart (atria removed), isolated mitochondria
- Sequence (Q63704 1-772): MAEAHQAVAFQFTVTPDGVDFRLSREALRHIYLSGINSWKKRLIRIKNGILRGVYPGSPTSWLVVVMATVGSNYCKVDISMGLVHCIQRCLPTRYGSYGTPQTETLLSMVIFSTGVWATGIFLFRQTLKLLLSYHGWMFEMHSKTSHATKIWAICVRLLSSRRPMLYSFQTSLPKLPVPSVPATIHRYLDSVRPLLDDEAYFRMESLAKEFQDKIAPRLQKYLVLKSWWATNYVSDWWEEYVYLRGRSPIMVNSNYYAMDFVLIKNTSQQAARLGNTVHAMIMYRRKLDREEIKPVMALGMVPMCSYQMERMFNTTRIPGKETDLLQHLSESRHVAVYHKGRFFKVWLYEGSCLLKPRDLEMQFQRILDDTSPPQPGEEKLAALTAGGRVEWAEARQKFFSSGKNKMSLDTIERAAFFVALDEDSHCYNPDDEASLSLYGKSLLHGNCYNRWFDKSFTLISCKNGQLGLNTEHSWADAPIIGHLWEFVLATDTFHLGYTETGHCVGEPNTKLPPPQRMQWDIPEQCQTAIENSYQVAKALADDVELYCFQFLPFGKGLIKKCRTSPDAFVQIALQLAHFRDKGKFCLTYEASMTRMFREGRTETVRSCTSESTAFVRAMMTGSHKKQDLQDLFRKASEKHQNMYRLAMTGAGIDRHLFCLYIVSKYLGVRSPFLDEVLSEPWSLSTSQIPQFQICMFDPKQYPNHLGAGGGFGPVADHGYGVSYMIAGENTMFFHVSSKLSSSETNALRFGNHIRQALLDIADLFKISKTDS
- MEASUREMENT_PROTOCOL: Primary Screen--Inhibition of CAT-1 in isolated mitochondria
- Assay type: biochemical
- REPORTED_CONDITIONS: rat heart mitochondria, reduction of palmitoyl carnitine formation by 50%; read-out: Primary Screen IC50
EXPERIMENTAL_ENDPOINT: IC50 (nM)

O=C(O)C(=O)c1ccc(OCCCn2c(=O)ccc3ccccc32)cc1
12000
O=C(OCC(O)CO)C(=O)c1ccc(OCCOc2ccc3ccccc3c2)cc1 (racemic)
40
O=C(O)C(=O)c1ccc(OCC(=O)N2CCN(c3ccccc3)CC2)cc1
10000
O=C(O)C(=O)c1ccc(OCCCCc2cccnc2)cc1
1500
O=C(O)C(=O)c1ccc(OCc2ccccc2)cc1
90000
CN(C)CCOC(=O)C(=O)c1ccc(OCCOc2ccc3ccccc3c2)cc1
90
O=C(O)C(=O)c1ccc(OCCOc2ccc3ccccc3c2)cc1F
160
O=C(O)C(=O)c1ccc(OCCOc2ccc3cc4ccccc4cc3c2)cc1
200

A. O=C(O)C(=O)c1ccc(C#CCNC(=O)c2ccc3ccccc3c2)cc1
B. O=C(O)C(=O)c1ccc(OCCOC2CCCCC2)cc1
C. O=C(O)C(=O)c1ccc(OCC(=O)c2ccc3ccccc3c2)cc1
// query Rank items: key IC50, increasing. Note for the reader: the ranking is given by listing the labels in the order requested.
// result C, B, A

a. O=C(COc1ccc(C(=O)C(=O)O)cc1)NC1CCCCCCC1
b. O=C(O)C(=O)c1ccc(CCCNC(=O)c2ccc3ccccc3c2)cc1
// query Please choose the item with the lower IC50 value from this pair: a and b Please indicate the selected item by its label.
// result a
(a: 400 nM, b: 6200 nM)
